tested on: Hepatitis C virus NS3 helicase; test: HCV NS3 helicase inhibitors, primary screen, biochemical, fluorescence polarization, LOPAC1280 library (AID 687035); conditions: Purified HCV NS3 helicase, Cy5-dT15 ssDNA binding fluorescence polarization; stronger effect = higher value; concentration not given here
Calls of active or inactive are those of the source. Cut-off read from the data, not from the text of the source: active = inhibition above about 37%; inactive = the rest.
endpoint_name: inhibition

# smiles_data, inhibition
data = [
    ("CCCCCCC(=O)OC1CC(C)(C)NC(C)(C)C1", "-4% (inactive)"),
]

q: For the compound Nc1nc2ccc(Cl)cc2c2nc(-c3ccco3)nn12 , what inhibition is on record?
a: -2% (inactive)

q: Which measured inhibition value corresponds to O=c1[nH]c2cc([N+](=O)[O-])c([N+](=O)[O-])cc2[nH]c1=O ?
a: -4% (inactive)

q: # get_value(readout='inhibition', item= N#C/C(=C\c1ccc(O)c(O)c1)C(=O)NCc1ccccc1 )
a: 0% (inactive)

q: Fill in: inhibition of N[C@@H](CS(=O)O)C(=O)O is ___
a: -5% (inactive)

q: # input compound: NCCCNCCCCNCCCN ; wanted: its inhibition
a: -1% (inactive)

q: GET /values?readout=inhibition&item= CC(C)(CO)Cc1cc(C(C)(C)C)c(O)c(C(C)(C)C)c1
a: 0% (inactive)

q: // returns reported inhibition for input Nc1nc2c(cnn2CCc2ccccc2)c2nc(-c3ccco3)nn12
a: 0% (inactive)

###

experiment: differential killing of epithelial or mesenchymal cells, primary screen, imaging, PC-3E GFP, TEM4-18 mCherry, co-culture (AID 1345086); details: imaging cell counts, measured here: epithelial PC-3E GFP cell survival, at 1 µM;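 note: cells exposed to compound for 72 h before imaging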
Returns: string. Value is met if measured normalised cell number is below 1, and not met if it is greater than or equal to it.

# molecule, cat
data = [
    ("O=C(O)CNC(=O)c1ccc([C@H](O)c2ccccc2)cn1", "not met"),
    ("C/C=C/C1=CC(=O)[C@H](O)[C@H]1O", "not met"),
    ("COc1cc([C@@H]2c3cc4c(cc3C(O[C@@H]3O[C@@H]5CO[C@@H](c6cccs6)OC5[C@H](O)[C@H]3O)C3COC(=O)[C@@H]32)OCO4)cc(OC)c1O (stereo partly drawn)", "met"),
    ("COC(=O)CCC(=O)NC(=O)Cc1ccccc1", "not met"),
    ("CC1CC2C3CCC4=CC(=O)C=C[C@]4(C)[C@@]3(F)[C@@H](O)C[C@]2(C)[C@@]1(O)C(=O)CO (stereo partly drawn)", "not met"),
]

q: Lab note: normalised cell number threshold 1. Does this molecule come in strictly under it? O=C1O[C@H](C(O)CO)C(O)=C1O (stereo partly drawn)
a: not met

q: Confirm or reject: normalised cell number of CC1=CC(=O)C2C(C)(C)CCC[C@]2(C)[C@@]1(O)CCc1ccoc1 (stereo partly drawn) lies strictly below 1
a: met

q: is_below(normalised cell number, 1) for COC(=O)[C@@H]1OC(=O)C2OC23[C@@]1(C)CCC1[C@@]2(C)CCC(=O)C(C)(C)C2C[C@@H](OC(C)=O)[C@]13C (stereo partly drawn) ?
a: not met

###

tested on: R275C/beta1; assay: modulators of BK channel variants, profiling panel, selectivity assay, cell-based, U2OS BacMam, thallium flux, beta subunits (AID 1259406); conditions: at 30 µM;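 note: initial slope of Thallos dye fluorescence rise after thallium is added; log ratio against the mean of 0.3% DMSO vehicle wells on the same plate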
endpoint_name: log fold change Tl+ flux
Could you respond with only the numeric value?

Some compounds with recorded log fold change Tl+ flux:
# compound, log fold change Tl+ flux
rows = [
    ("O=C(Nc1csc(Cc2c(Cl)cccc2Cl)n1)NN1CCOCC1", 0.0073),
    ("O=C(O)c1nnn(-c2ccccc2Oc2ccc(Cl)cc2Cl)c1-c1ccccc1", 0.297),
    ("NC(=NC(=O)c1cccs1)c1cccs1", 0.0586),
    ("O=C(CN1CCOCC1)Nc1ccccc1Sc1nccc(C(F)(F)F)n1", -0.0285),
    ("CN1[C@@H]2CC[C@H]1CC(OC(=O)C(CO)c1ccccc1)C2 (stereo partly specified)", -0.00104),
]

API: the following record is the query input.
q: Return reported log fold change Tl+ flux; argument: CCOC(=O)NN=C(C)C(C)=NNC(=O)OCC
a: -0.0653
